- Tested On: recombinant DYRK1A kinase (Homo sapiens (Human))
- Assay Protocol: DYRK1A kinase assay (Ser/Thr 18 peptide Z-lyte FRET)
- Conditions: DYRK1A kinase activity, Z-lyte Ser/Thr 18 peptide, 15 μM ATP; method text calls the value IC50; read-out: EC50 (the source's name)
pIC50: −log10 of the molar value.
Outcome Measure: pIC50

Example entries and their recorded answers appear below.
{"Sample Smiles": "COc1nc(N[C@H]2CC[C@](C)(O)CC2)nn2ccc(-c3ccc4nnn(C(C)C)c4c3)c12", "pIC50": 8.72}
{"Sample Smiles": "COc1nc(NC2CC3(C2)CN(C(=O)OC(C)(C)C)C3)nn2ccc(-c3ccn4nccc4c3)c12", "pIC50": 7.20}
{"Sample Smiles": "COc1nc(N[C@H]2C[C@](C)(O)C2)nn2ccc(-c3ccc4nc(C)n(CCO)c4c3)c12", "pIC50": 8.07}
{"Sample Smiles": "COc1nc(N[C@H]2C[C@](C)(C(=O)NC3(C)CCC3)C2)nn2ccc(-c3ccc4ncccc4c3)c12", "pIC50": 8.57}
{"Sample Smiles": "COc1nc(N[C@@H]2CCN(C)CC2(F)F)nn2ccc(-c3ccc4nc(C)n(CC(F)F)c4c3)c12", "pIC50": 8.37}
{"Sample Smiles": "COc1nc(N[C@H]2CC[C@H](OC)CC2)nn2ccc(-c3ccn4nccc4c3)c12", "pIC50": 7.03}
{"Sample Smiles": "COc1nc(NC2CCN(C3COC3)CC2)nn2ccc(-c3ccn4nccc4c3)c12", "pIC50": 8.15}
{"Sample Smiles": "CN1CC[C@H](Nc2nc(OC3COC3)c3c(-c4ccc5ncccc5c4)ccn3n2)[C@H](F)C1", "pIC50": 8.24}
{"Sample Smiles": "COc1nc(N[C@H]2CCN(C)C[C@H]2F)nn2ccc(-c3cnc4nccn4c3)c12", "pIC50": 8.30}
{"Sample Smiles": "[2H]C([2H])([2H])Oc1nc(N[C@H]2C[C@](C)(O)C2)nn2ccc(-c3ccc4nccnc4c3)c12", "pIC50": 8.92}

a = COc1nc(NC2CC3(CCN(C(C)=O)CC3)C2)nn2ccc(-c3ccc4nccnc4c3)c12
b = COc1nc(N[C@H]2CCN(C)C[C@H]2F)nn2ccc(-c3ccc4ncccc4c3)c12
c = CN1C[C@H](F)[C@H](Nc2nc(O)c3c(-c4cnc5nccn5c4)ccn3n2)C1
d = COc1nc(N[C@H]2C[C@@H](OCCO)C2)nn2ccc(-c3ccc4nnn(CC(F)(F)F)c4c3)c12
Lookup: Rank by pIC50 (largest to smallest). Output spec: a listing of the labels in the requested order.
Found: a, d, b, c
(a: 9.05, d: 8.74, b: 8.33, c: 6.81)
